Origin of measurements: patent US20220289724A1

# system-under-test: Recombinant human KIF18A (1-467 His-tagged) protein (Homo sapiens, UniProt Q8NI77)
# Construct: Recombinant human KIF18A (1-467 His-tagged) protein; His
# Sequence (Q8NI77 1-467): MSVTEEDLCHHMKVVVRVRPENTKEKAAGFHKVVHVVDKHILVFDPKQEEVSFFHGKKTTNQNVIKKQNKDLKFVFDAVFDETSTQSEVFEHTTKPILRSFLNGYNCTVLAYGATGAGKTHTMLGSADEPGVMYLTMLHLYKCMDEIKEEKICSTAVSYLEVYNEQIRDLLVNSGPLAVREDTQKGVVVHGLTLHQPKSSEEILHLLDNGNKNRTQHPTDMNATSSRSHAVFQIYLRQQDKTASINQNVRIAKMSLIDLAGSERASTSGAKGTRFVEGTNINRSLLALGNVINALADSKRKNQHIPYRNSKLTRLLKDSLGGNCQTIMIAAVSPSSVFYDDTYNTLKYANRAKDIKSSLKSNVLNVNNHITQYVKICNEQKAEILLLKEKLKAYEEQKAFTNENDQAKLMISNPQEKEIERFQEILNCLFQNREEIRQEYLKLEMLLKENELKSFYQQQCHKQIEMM
# Sequence (P02550 whole entry partner): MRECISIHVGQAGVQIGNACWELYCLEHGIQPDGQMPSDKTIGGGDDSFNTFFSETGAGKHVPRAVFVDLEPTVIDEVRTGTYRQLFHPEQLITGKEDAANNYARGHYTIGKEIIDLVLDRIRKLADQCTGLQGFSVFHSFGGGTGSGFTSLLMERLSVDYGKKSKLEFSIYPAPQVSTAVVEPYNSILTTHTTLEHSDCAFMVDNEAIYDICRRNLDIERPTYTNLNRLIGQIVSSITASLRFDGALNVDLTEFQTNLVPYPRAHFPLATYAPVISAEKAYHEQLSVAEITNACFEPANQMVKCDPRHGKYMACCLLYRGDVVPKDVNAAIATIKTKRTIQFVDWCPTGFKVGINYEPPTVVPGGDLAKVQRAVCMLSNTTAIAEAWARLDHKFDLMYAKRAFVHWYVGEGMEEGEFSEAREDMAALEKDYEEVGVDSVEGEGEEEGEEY
# Sequence (P02554 whole entry partner): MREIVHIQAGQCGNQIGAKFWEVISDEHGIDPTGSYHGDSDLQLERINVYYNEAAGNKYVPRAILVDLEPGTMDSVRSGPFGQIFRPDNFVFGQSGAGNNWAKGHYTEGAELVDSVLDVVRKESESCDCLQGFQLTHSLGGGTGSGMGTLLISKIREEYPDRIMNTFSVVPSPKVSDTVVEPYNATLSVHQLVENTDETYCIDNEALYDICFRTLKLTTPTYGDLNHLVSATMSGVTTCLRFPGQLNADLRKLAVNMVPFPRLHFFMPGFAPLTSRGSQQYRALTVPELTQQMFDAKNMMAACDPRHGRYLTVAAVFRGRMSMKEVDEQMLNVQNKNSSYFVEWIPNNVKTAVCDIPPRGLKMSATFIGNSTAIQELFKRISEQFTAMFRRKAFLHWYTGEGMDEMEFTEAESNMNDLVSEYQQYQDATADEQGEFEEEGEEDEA
# procedure-summary: KIF18A Enzyme Assay: microtubule-stimulated ATPase activity assay (ADP-Glo)
# experimental-parameters: KIF18A protein 30 nM, 30 μg/mL pig microtubules, ATP at Km 75 μM, ADP-Glo luminescence, RT
value-kind: pIC50
Numbers only, as −log10 of the molar value.

Illustrative cases are given below, each with its answer.
INSERT INTO measurements (compound, reading) VALUES
  ('CC(C)(CO)Nc1cccc(NC(=O)c2ccc(NS(=O)(=O)C3(C)CC3)cc2N2CCC3(CC2)CC3)c1F [Example 101-2]', 6.53),
  ('CC(C)(C)NS(=O)(=O)c1cccc(NC(=O)c2ccc(NS(=O)(=O)C3CC3)cc2N2CCC3(CC2)CC3)c1 [Example 102-4]', 7.52),
  ('Cn1nccc1-c1ccc(C(=O)Nc2cccc(S(=O)(=O)NC(C)(C)C)c2)c(N2CCC3(CC2)CC3)c1 [Example 109-1]', 6.22);

// next entry
Challenge: What value of pIC50 has been recorded for this entry: C[C@@H]1CN(c2cc(NC(=O)c3ccc(NS(=O)(=O)CCO)cc3N3CCC4(CC3)CC4)ccc2F)CCO1 [Example 103-4]
Response given: 6.75

====

Assign IC50 to each entry below.
# system-under-test: Recombinant human KIF18A (1-467 His-tagged) protein (Homo sapiens)
# Construct: Recombinant human KIF18A (1-467 His-tagged) protein; His
# procedure-summary: KIF18A Enzyme Assay: microtubule-stimulated ATPase activity assay (ADP-Glo)
# experimental-parameters: KIF18A protein 30 nM, 30 μg/mL pig microtubules, ATP at Km 75 μM, ADP-Glo luminescence, RT
Answers are plain numbers, in µM.

Consider the reported IC50 for these molecules:
INSERT INTO measurements (mol, system_under_test, value_kind, reading) VALUES
  ('CC(C)(C)NS(=O)(=O)c1cccc(NC(=O)c2ccc(S(=O)(=O)NCCO)cc2N2CCC3(CC2)CC3)c1', 'Recombinant human KIF18A (1-467 His-tagged) protein (Homo sapiens)', 'IC50', 0.043),
  ('CC(C)(C)NS(=O)(=O)c1cccc(NC(=O)c2ccc(C3(C)COC3)cc2N2CCC3(CC2)CC3)c1', 'Recombinant human KIF18A (1-467 His-tagged) protein (Homo sapiens)', 'IC50', 0.13);

Please go through the list and note IC50 for each molecule.
1. CC(C)(C)NS(=O)(=O)c1cccc(NC(=O)c2ccc(S(=O)(=O)NC3COC3)cc2N2CCC3(CC2)CC3)c1
2. CC(C)(C)c1cccc(NC(=O)c2ccc(S(C)(=O)=O)cc2N2CCC3(CC2)CC3)c1
3. CC(C)(C)NS(=O)(=O)c1cccc(NC(=O)c2ccc(CS(C)(=O)=O)cc2N2CCC3(CC2)CC3)c1
4. CNC(=O)c1ccc(C(=O)Nc2cccc(S(=O)(=O)NC(C)(C)C)c2)c(N2CCC3(CC2)CC3)c1
5. C[S@](=N)(=O)c1cccc(NC(=O)c2ccc(NS(=O)(=O)CCO)cc2N2CCC3(CC2)CC3)c1

Response given:
[0.06, 0.362, 0.051, 0.132, 0.488]
